Taken from ChEMBL document CHEMBL2401638.

test: Cytotoxicity in Artemia cysts assessed as mortality of nauplii at 40 ug/mL after 24 hrs relative to control; type: organism-based; conditions: in vivo
QUANTITY KIND: mortality at 24 h, 40 ug/mL (%)
Answer format: numeric, % implied, no suffix.

Look over these answered cases.
[[record]]
compound = "C=CCn1c(=O)c(C2C(C(=O)OCC)=C(N)N(NC(=O)c3ccncc3)C3=C2C(=O)CC(C)(C)C3)cc2cc(C)ccc21 (stereo unspecified)"
units = "%"
test_result = 60

[[record]]
compound = "C=CCn1c(=O)c(C2C(C(=O)OC)=C(N)N(NC(=O)c3ccncc3)C3=C2C(=O)CCC3)cc2cc(OC)ccc21 (stereo unspecified)"
units = "%"
test_result = 80

[[record]]
compound = "C=CCn1c(=O)c(C2C(C(=O)OC(C)C)=C(N)N(NC(=O)c3ccncc3)C3=C2C(=O)CC(C)(C)C3)cc2cc(Cl)ccc21 (stereo unspecified)"
units = "%"
test_result = 70


Q: Look at this compound and give its reported mortality at 24 h, 40 ug/mL. C=CCn1c(=O)c(C2C(C(=O)OC)=C(N)N(NC(=O)c3ccncc3)C3=C2C(=O)CC(C)(C)C3)cc2cc(C)ccc21 (stereo unspecified)
A: 60

Q: I have this compound here, C=CCn1c(=O)c(C2C(C(=O)OCC)=C(N)N(NC(=O)c3ccncc3)C3=C2C(=O)CC(C)(C)C3)cc2cc(OC)ccc21 (stereo unspecified) , and I need its recorded mortality at 24 h, 40 ug/mL.
A: 60

Q: Data request, read-out mortality at 24 h, 40 ug/mL, for C=CCn1c(=O)c(C2C(C(=O)OC(C)C)=C(N)N(NC(=O)c3ccncc3)C3=C2C(=O)CC(C)(C)C3)cc2cc(C)ccc21 (stereo unspecified)
A: 50
